All figures here come from PubChem BioAssay AID1159580.

Listed here are compounds together with their documented normalized growth.
experiment: chemical genetic growth profiling, strain panel (AID 1159580);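 further: tested at 20 µM; growth read once vehicle control cultures reached saturation at 30 °C; 1 = growth at the plate median or of vehicle wells; lower values mean less growth of the strain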
runParameters: S. cerevisiae deletion strains, growth OD, locus YCL061C, strain MRC1 (second series), active compounds read low
Screen size: about 5,500 compounds; about 2,000 (36%) were called active. Not shown: some 18% with an inconclusive outcome. The list shows a part of the results.
Hey, just send me the number, nothing else.

// known answers, use as guide
compound: COc1ccc2c(c1OC)C(=O)O[C@@H]2[C@H]1c2c(cc3c(c2OC)OCO3)CCN1C
normalized growth: 1

compound: NCCc1ccc(O)cc1
normalized growth: 1.01

compound: CSc1ccc2c(c1)C(N1CCN(C)CC1)Cc1ccccc1S2 (configuration not stated)
normalized growth: 0.532

compound: CCCn1c(=O)[nH]c(=O)c2[nH]cnc21
normalized growth: 1.01

compound: CC(=O)C(C)=O
normalized growth: 1.01

The measured normalized growth associated with O=C(O)C1CN(CCCP(=O)(O)O)CCN1 (configuration not stated) reads 0.994

Given item CN1CCN2c3ccccc3Cc3ccccc3C2C1 (configuration not stated) , the value recorded as its normalized growth is 0.995
